# maps each entry to its combination Emax
- System: MV-4-11 (Acute Myeloid Leukemia)
- assay.text: combination Emax (second highest fraction inhibited in the dose matrix, 72 h); higher = more inhibition; extreme values may be limits of the assay
I'd appreciate a reply containing only the number, no unit.

Sample answers from the record:
{"molecule": "Cc1c2c(nn1C)CSCc1cc(n(C)n1)CSc1cc(c3ccccc3c1)OCCCc1c(C(=O)O)n(C)c3c-2c(Cl)ccc13 [AZD5991] + C=CCn1c(=O)c2cnc(Nc3ccc(N4CCN(C)CC4)cc3)nc2n1-c1cccc(C(C)(C)O)n1 [AZD1775] (first compound max 1 µM, partner max 1 µM)", "system.name": "MV-4-11 (Acute Myeloid Leukemia)", "observed.measurement": 1}
{"molecule": "Cc1c2c(nn1C)CSCc1cc(n(C)n1)CSc1cc(c3ccccc3c1)OCCCc1c(C(=O)O)n(C)c3c-2c(Cl)ccc13 [AZD5991] + CC(=O)O[C@H]1C(=O)[C@@]2(C)[C@H]([C@H](OC(=O)c3ccccc3)[C@]3(O)C[C@H](OC(=O)[C@H](O)[C@@H](NC(=O)c4ccccc4)c4ccccc4)C(C)=C1C3(C)C)[C@]1(OC(C)=O)CO[C@@H]1C[C@@H]2O [Paclitaxel] (first compound max 1 µM, 7x7, partner max 3 µM)", "system.name": "MV-4-11 (Acute Myeloid Leukemia)", "observed.measurement": 1}
{"molecule": "COc1cccc2c1C(=O)c1c(O)c3c(c(O)c1C2=O)C[C@@](O)(C(=O)CO)C[C@@H]3O[C@H]1C[C@H](N)[C@H](O)[C@H](C)O1 [Doxorubicin] + Cc1cc2ncnn2cc1Nc1ncc2c(n1)n(C1CCOCC1)c(=O)n2C [AZD7648] (first compound max 1 µM, 7x7, partner max 10 µM)", "system.name": "MV-4-11 (Acute Myeloid Leukemia)", "observed.measurement": 1}
{"molecule": "CC1(C)CCC(CN2CCN(c3ccc(C(=O)NS(=O)(=O)c4ccc(NCC5CCOCC5)c([N+](=O)[O-])c4)c(Oc4cnc5[nH]ccc5c4)c3)CC2)=C(c2ccc(Cl)cc2)C1 [Venetoclax] + COc1cc(Nc2ncc3c(n2)-c2ccc(Cl)cc2C(c2c(F)cccc2OC)=NC3)ccc1C(=O)O [Alisertib] (first compound max 1 µM, 7x7, partner max 10 µM)", "system.name": "MV-4-11 (Acute Myeloid Leukemia)", "observed.measurement": 1}
{"molecule": "Cc1cc2ncnn2cc1Nc1ncc2c(n1)n(C1CCOCC1)c(=O)n2C [AZD7648] + O=C(c1cc(Cc2n[nH]c(=O)c3ccccc23)ccc1F)N1CCN(C(=O)C2CC2)CC1 [Olaparib] (first compound max 10 µM, 7x7, partner max 10 µM)", "system.name": "MV-4-11 (Acute Myeloid Leukemia)", "observed.measurement": 0.446}
{"molecule": "CC(=O)c1c(C)c2cnc(Nc3ccc(N4CCNCC4)cn3)nc2n(C2CCCC2)c1=O [Palbociclib] + Cn1cnc2c(F)c(Nc3ccc(Br)cc3Cl)c(C(=O)NOCCO)cc21 [Selumetinib] (first compound max 10 µM, 7x7, partner max 10 µM)", "system.name": "MV-4-11 (Acute Myeloid Leukemia)", "observed.measurement": 0.955}
{"molecule": "NC1(C(=O)N[C@@H](CCO)c2ccc(Cl)cc2)CCN(c2ncnc3[nH]ccc23)CC1 [Capivasertib] + CC(C)n1c(=O)n(C)c2cnc3cc(F)c(-c4ccc(OCCCN5CCCCC5)nc4)cc3c21 [AZD1390] (first compound max 10 µM, 7x7, partner max 0.3 µM)", "system.name": "MV-4-11 (Acute Myeloid Leukemia)", "observed.measurement": 0.722}
{"molecule": "CN(CCO)CC[C@H](CSc1ccccc1)Nc1ccc(S(=O)(=O)NC(=O)c2ccc(N3CCC([C@@H](O)c4ccccc4-c4ccc(Cl)cc4)CC3)cc2)cc1S(=O)(=O)C(F)(F)F [AZD4320] + C[C@@H]1COCCN1C2=NC(=NC(=C2)C3(CC3)[S@](=N)(=O)C)C4=C5C=CNC5=NC=C4 [AZD6738] (first compound max 1 µM, 7x7, partner max 10 µM)", "system.name": "MV-4-11 (Acute Myeloid Leukemia)", "observed.measurement": 1}
{"molecule": "N#Cc1cnc(Nc2cc(NC[C@H]3CNCCO3)c(C(F)(F)F)cn2)cn1 [SRA737] + C=CCn1c(=O)c2cnc(Nc3ccc(N4CCN(C)CC4)cc3)nc2n1-c1cccc(C(C)(C)O)n1 [AZD1775] (first compound max 10 µM, partner max 1 µM)", "system.name": "MV-4-11 (Acute Myeloid Leukemia)", "observed.measurement": 0.931}
{"molecule": "Cc1c2c(nn1C)CSCc1cc(n(C)n1)CSc1cc(c3ccccc3c1)OCCCc1c(C(=O)O)n(C)c3c-2c(Cl)ccc13 [AZD5991] + CCN(CCO)CCCOc1ccc2c(Nc3cc(CC(=O)Nc4cccc(F)c4)[nH]n3)ncnc2c1 [AZD2811] (first compound max 1 µM, 7x7, partner max 1 µM)", "system.name": "MV-4-11 (Acute Myeloid Leukemia)", "observed.measurement": 1}

Retrieve combination Emax measured for Cc1c2c(nn1C)CSCc1cc(n(C)n1)CSc1cc(c3ccccc3c1)OCCCc1c(C(=O)O)n(C)c3c-2c(Cl)ccc13 [AZD5991] + Nc1ccn([C@@H]2O[C@H](CO)[C@@H](O)C2(F)F)c(=O)n1 [Gemcitabine] (first compound max 1 µM, 7x7, partner max 0.3 µM) and print it. 1

Quote combination Emax reported for Cc1c2c(nn1C)CSCc1cc(n(C)n1)CSc1cc(c3ccccc3c1)OCCCc1c(C(=O)O)n(C)c3c-2c(Cl)ccc13 [AZD5991] + CC1(C)CCC(CN2CCN(c3ccc(C(=O)NS(=O)(=O)c4ccc(NCC5CCOCC5)c([N+](=O)[O-])c4)c(Oc4cnc5[nH]ccc5c4)c3)CC2)=C(c2ccc(Cl)cc2)C1 [Venetoclax] (first compound max 1 µM, 7x7, partner max 1 µM) please. 1

Supply combination Emax value. Item: C[C@@H](c1ccc2nccn2c1)n1nnc2ncc(-c3cnn(C)c3)nc21 [Savolitinib] + Cc1c2c(nn1C)CSCc1cc(n(C)n1)CSc1cc(c3ccccc3c1)OCCCc1c(C(=O)O)n(C)c3c-2c(Cl)ccc13 [AZD5991] (first compound max 1 µM, 7x7, partner max 1 µM) 1

###

We begin with a simple list: items and their reported Bliss excess.
- System: MOLT-4 (T-Lymphoblastic Leukemia);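 further: after 72 h of two-drug dosing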
- assay.text: Bliss excess, mean over the matrix (fraction); higher = more synergy
Reply with the value as a number alone.

{"compound": "Cn1cnc2c(F)c(Nc3ccc(Br)cc3Cl)c(C(=O)NOCCO)cc21 [Selumetinib] + CC(C)n1c(=O)n(C)c2cnc3cc(F)c(-c4ccc(OCCCN5CCCCC5)nc4)cc3c21 [AZD1390] (first compound max 10 µM, 7x7, partner max 0.3 µM)", "observed.measurement": 0.0535}
{"compound": "Cc1c2c(nn1C)CSCc1cc(n(C)n1)CSc1cc(c3ccccc3c1)OCCCc1c(C(=O)O)n(C)c3c-2c(Cl)ccc13 [AZD5991] + Cn1cnc2c(F)c(Nc3ccc(Br)cc3Cl)c(C(=O)NOCCO)cc21 [Selumetinib] (first compound max 1 µM, 7x7, partner max 3 µM)", "observed.measurement": 0.0167}
{"compound": "COc1cccc(OCCCN)c1-c1cc(Nc2cnc(C#N)cn2)n[nH]1 [Prexasertib] + O=C(c1cc(Cc2n[nH]c(=O)c3ccccc23)ccc1F)N1CCN(C(=O)C2CC2)CC1 [Olaparib] (first compound max 1 µM, 7x7, partner max 10 µM)", "observed.measurement": 0.0154}
{"compound": "Cc1c2c(nn1C)CSCc1cc(n(C)n1)CSc1cc(c3ccccc3c1)OCCCc1c(C(=O)O)n(C)c3c-2c(Cl)ccc13 [AZD5991] + CC1(C)CCC(CN2CCN(c3ccc(C(=O)NS(=O)(=O)c4ccc(NCC5CCOCC5)c([N+](=O)[O-])c4)c(Oc4cnc5[nH]ccc5c4)c3)CC2)=C(c2ccc(Cl)cc2)C1 [Venetoclax] (first compound max 1 µM, 7x7, partner max 1 µM)", "observed.measurement": 0.124}

Please look at this compound and report its Bliss excess: N#Cc1cnc(Nc2cc(NC[C@H]3CNCCO3)c(C(F)(F)F)cn2)cn1 [SRA737] + Nc1ccn([C@@H]2O[C@H](CO)[C@@H](O)C2(F)F)c(=O)n1 [Gemcitabine] (first compound max 10 µM, 7x7, partner max 0.3 µM) 0.0522

Give the reported Bliss excess for this compound. COc1cccc(OCCCN)c1-c1cc(Nc2cnc(C#N)cn2)n[nH]1 [Prexasertib] + C[C@@H]1COCCN1C2=NC(=NC(=C2)C3(CC3)[S@](=N)(=O)C)C4=C5C=CNC5=NC=C4 [AZD6738] (first compound max 1 µM, 7x7, partner max 10 µM) 0.0087

Quote Bliss excess reported for CC1(C)CCC(CN2CCN(c3ccc(C(=O)NS(=O)(=O)c4ccc(NCC5CCOCC5)c([N+](=O)[O-])c4)c(Oc4cnc5[nH]ccc5c4)c3)CC2)=C(c2ccc(Cl)cc2)C1 [Venetoclax] + C[C@@H]1COCCN1C2=NC(=NC(=C2)C3(CC3)[S@](=N)(=O)C)C4=C5C=CNC5=NC=C4 [AZD6738] (first compound max 1 µM, 7x7, partner max 10 µM) please. 0.0382
